- System: SK-MEL-5
- experimental.protocol: Growth inhibition of human SK-MEL-5 cells assessed as cell growth at 10 uM incubated for 48 hrs by sulforhodamine B assay relative to control
- Type: functional
- assay.conditions: read-out: Activity

{"columns": ["smiles.representation", "test.system", "growth at 10 µM, %"],
 "data": [
  ["CCN(CC)CC(=O)Nc1cccc(C(=O)Nc2cc(CO)cc(NC(C)=O)c2)c1", "SK-MEL-5", 102],
  ["CC(=O)Nc1cc(CO)cc(NC(=O)c2ccc(NC(=O)CCCN3CCOCC3)cc2)c1", "SK-MEL-5", 100],
  ["CC(=O)Nc1cc(CCl)cc(NC(=O)c2ccc(C(=O)NCCCN(C)C)cc2)c1", "SK-MEL-5", 108],
  ["CC(=O)Nc1cc(CO)cc(NC(=O)c2ccc(C(=O)NCCCN(C)C)cc2)c1", "SK-MEL-5", 96.4],
  ["CC(=O)Nc1cc(CO[Si](C)(C)C(C)(C)C)cc(NC(=O)c2ccc(C(=O)Nc3cccc(NC(=O)CCCN(C)C)c3)cc2)c1", "SK-MEL-5", 89],
  ["CC(=O)Nc1cc(CO)cc(NC(=O)c2ccc(C(=O)Nc3cccc(NC(=O)CCCN(C)C)c3)cc2)c1", "SK-MEL-5", 77.7]
]}

// provenance: ChEMBL document CHEMBL4715697
